tested on: 966289-007-R4-J1-PDC complex spheroid viability; assay: Anticancer human tumor 966289-007-R4-J1-PDC patient-derived pancreatic adenocarcinoma cell line growth inhibition [RAS]; conditions: second compound 1 µM; first compound 0.03 µM; hits give low values
Measured viability, T/C of individual entries
outcomeMeasure: viability, T/C (%)

compound	outcomeMeasure	number
CCc1c2c(nc3ccc(O)cc13)-c1cc3c(c(=O)n1C2)COC(=O)[C@]3(O)CC + C#Cc1c(F)ccc2cc(O)cc(-c3ncc4c(N5CC6CCC(C5)N6)nc(OCC56CCCN5CC(F)C6)nc4c3F)c12	viability, T/C	1.22
CC1(C)CCC(Nc2ncc(C(F)(F)F)c(-c3c[nH]c4c(P(C)(C)=O)c(C#N)ccc34)n2)CN1 (centres undefined) + C=CC(=O)N1CCN(c2nc(OCC3CCCN3C)nc3c(F)c(-c4nc(N)cc(C)c4C(F)(F)F)c(Cl)cc23)C(C)C1	viability, T/C	15.6
CCc1c2c(nc3ccc(O)cc13)-c1cc3c(c(=O)n1C2)COC(=O)[C@]3(O)CC + C=CC(=O)N1CCN(c2nc(OCC3CCCN3C)nc3c(F)c(-c4nc(N)cc(C)c4C(F)(F)F)c(Cl)cc23)C(C)C1	viability, T/C	0.98
CC1(C)CCC(Nc2ncc(C(F)(F)F)c(-c3c[nH]c4c(P(C)(C)=O)c(C#N)ccc34)n2)CN1 (centres undefined) + C#Cc1c(F)ccc2cc(O)cc(-c3ncc4c(N5CC6CCC(C5)N6)nc(OCC56CCCN5CC(F)C6)nc4c3F)c12	viability, T/C	27.3

----------
Tested on: 966289-007-R4-J1-PDC complex spheroid viability
Assay: Anticancer human tumor 966289-007-R4-J1-PDC cell line growth inhibition [RAS];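 also: spheroids exposed to agents for one week before readout; percent viability relative to DMSO vehicle control wells as 100%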
Conditions: compound 10 µM; hits give low values
Source text: RAS pathway inhibitors in Combinations in Complex Spheroids A high-throughput screen of multi-cell type tumor spheroids was designed to identify active combinations of RAS pathway inhibitors and targeted small molecules. Complex spheroids include a stromal component modeled by human endothelial cells (HUVEC) and fibroblasts modeled by human mesenchymal stem cells (MSCs). […] Compounds. […] If the clinical Cmax for an agent had not been determined, the highest concentration tested was 10 microM. […]
viability, T/C by entry:
outcomeMeasure: viability, T/C

>>> df
                                   compound  outcomemeasure                    result
0  CC1(O)CCCC1n1c(=O)c(C(F)F)cc2cnc(NC3CCN(S(C)(=O)=O)CC3)nc21 (stereo not drawn)  viability, T/C  4.66% [middle of 4 runs]
1  Cc1nc(N2CCC3(CC2)COC(C)C3N)c(CO)nc1Sc1ccnc(N)c1Cl (stereo not drawn)  viability, T/C  95.5% [middle of 4 runs]
2  CC(Nc1ccc2c(c1)OCCn1cc(N3C(=O)OCC3C(F)F)nc1-2)C(N)=O (stereo not drawn)  viability, T/C  87.9% [middle of 4 runs]

----------
tested on: 966289-007-R4-J1-PDC complex spheroid viability; experiment: Anticancer human tumor 966289-007-R4-J1-PDC cell line growth inhibition [RAS]; settings: second compound 0.0949 µM; first compound 1 µM; hits give low values;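 also: spheroids exposed to agents for one week before readout; percent viability relative to DMSO vehicle control wells as 100%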
outcomeMeasure: viability, T/C

compound	result
CC(=O)OC12COC1CC(O)C1(C)C(=O)C(O)C3=C(C)C(OC(=O)C(O)C(NC(=O)OC(C)(C)C)c4ccccc4)CC(O)(C(OC(=O)c4ccccc4)C21)C3(C)C (centres undefined) + CCn1c(-c2cc(N3CCN(C)CC3)cnc2C(C)OC)c2c3cc(ccc31)-c1csc(n1)CC(NC(=O)C1CC1C)C(=O)N1CCCC(N1)C(=O)OCC(C)(C)C2	19.3%
CCC(CC)c1cc(NC2CCC(N)C2)n2nccc2n1 (centres undefined) + CCn1c(-c2cc(N3CCN(C)CC3)cnc2C(C)OC)c2c3cc(ccc31)-c1csc(n1)CC(NC(=O)C1CC1C)C(=O)N1CCCC(N1)C(=O)OCC(C)(C)C2	119%
Cc1nc(N2CCC3(CC2)COC(C)C3N)c(CO)nc1Sc1ccnc(N)c1Cl (centres undefined) + CCn1c(-c2cccnc2C(C)OC)c2c3cc(ccc31)N1CCOC(CC(NC(=O)C(C(C)C)N(C)C(=O)C3(F)CCN(C(=O)C#CC(C)(C)N(C)C)CC3)C(=O)N3CCCC(N3)C(=O)OCC(C)(C)C2)C1	90.3%
Cc1nc(N2CCC3(CC2)COC(C)C3N)c(CO)nc1Sc1ccnc(N)c1Cl (centres undefined) + CCn1c(-c2cc(N3CCN(C)CC3)cnc2C(C)OC)c2c3cc(ccc31)-c1csc(n1)CC(NC(=O)C1CC1C)C(=O)N1CCCC(N1)C(=O)OCC(C)(C)C2	119%
